Target: murine TREX1 (Mus musculus (Mouse), UniProt Q91XB0)
Sequence (Q91XB0 1-242): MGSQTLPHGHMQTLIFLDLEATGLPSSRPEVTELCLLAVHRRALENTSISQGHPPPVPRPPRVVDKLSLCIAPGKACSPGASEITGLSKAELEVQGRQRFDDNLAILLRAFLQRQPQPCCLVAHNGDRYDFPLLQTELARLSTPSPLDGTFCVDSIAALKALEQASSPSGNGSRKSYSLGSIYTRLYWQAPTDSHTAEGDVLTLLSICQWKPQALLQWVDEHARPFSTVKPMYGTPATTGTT
Assay: TREX1 Exonuclease Assay (murine enzyme)
Assay type: biochemical
Conditions: murine TREX1 1 nM, FAM/BHQ1-labeled DNA oligonucleotide
Counter-ions that a name gives are not always drawn.

# COMPOUND, TARGET, IC50
data = [
    ("Cc1ccc(CNC(=O)[C@@H](CC(C)C)N2CCC(CCc3ccccc3)N3C[C@H](N)C[C@H]3C2=O)cc1 (stereo partly drawn) [Example 9]", "murine TREX1 (Mus musculus (Mouse), UniProt Q91XB0)", "1 to 9.99 µM"),
    ("CC(C)C[C@H](C(=O)NCc1cccc(Cl)c1)N1CCC(CCc2ccccc2)N2C[C@H](N)C[C@H]2C1=O (stereo partly drawn) [Example 26]", "murine TREX1 (Mus musculus (Mouse), UniProt Q91XB0)", "1 to 9.99 µM"),
    ("Cc1nnc(CC[C@H](C(=O)NCc2ccc(Cl)c(Cl)c2)N2CCC(CCc3ccccc3)N3C[C@H](N)C[C@H]3C2=O)[nH]1 (stereo partly drawn) [Example 48]", "murine TREX1 (Mus musculus (Mouse), UniProt Q91XB0)", "< 1 µM"),
    ("N#CCC[C@H](C(=O)NCc1ccc(Cl)c(Cl)c1)N1CCC(CCc2ccccc2)N2C[C@H](N)C[C@H]2C1=O (stereo partly drawn) [Example 45]", "murine TREX1 (Mus musculus (Mouse), UniProt Q91XB0)", "< 1 µM"),
    ("CC(C)C[C@H](C(=O)NCc1ccc(Cl)c(Cl)c1)N1CCC(C)N2C[C@H](N)C[C@H]2C1=O (stereo partly drawn) [Example 13]", "murine TREX1 (Mus musculus (Mouse), UniProt Q91XB0)", "10 to 100 µM"),
    ("N[C@@H]1C[C@H]2C(=O)N([C@H](CCC(=O)O)C(=O)NCc3ccc(Cl)c(Cl)c3)CCC(CCc3ccccc3)N2C1 (stereo partly drawn) [Example 14A]", "murine TREX1 (Mus musculus (Mouse), UniProt Q91XB0)", "10 to 100 µM"),
    ("CCC[C@H](CNS(=O)(=O)c1ccc(Cl)c(Cl)c1)N1CCC(CCc2ccccc2)N2C[C@H](N)C[C@H]2C1=O (stereo partly drawn) [Example 40]", "murine TREX1 (Mus musculus (Mouse), UniProt Q91XB0)", "1 to 9.99 µM"),
    ("C[C@H](C(=O)NCc1ccc(C(F)(F)F)cc1)N1CCC(CCc2ccccc2)N2C[C@H](N)C[C@H]2C1=O (stereo partly drawn) [Example 5]", "murine TREX1 (Mus musculus (Mouse), UniProt Q91XB0)", "< 1 µM"),
    ("CC(C)C[C@H](C(=O)NCCc1ccccc1)N1CCC(CCc2ccccc2)N2C[C@H](N)C[C@H]2C1=O (stereo partly drawn) [Example 23]", "murine TREX1 (Mus musculus (Mouse), UniProt Q91XB0)", "10 to 100 µM"),
    ("CC(=O)N[C@@H]1C[C@H]2C(=O)N([C@H](CC(C)C)C(=O)NCc3ccc(Cl)c(Cl)c3)CCC(CCc3ccccc3)N2C1 (stereo partly drawn) [Example 20, HCl]", "murine TREX1 (Mus musculus (Mouse), UniProt Q91XB0)", "10 to 100 µM"),
    ("CC(C)C[C@H](C(=O)NCc1ccc(Cl)c(Cl)c1)N1CCC(CS(=O)(=O)c2ccccc2)N2C[C@H](N)C[C@H]2C1=O (stereo partly drawn) [Example 41]", "murine TREX1 (Mus musculus (Mouse), UniProt Q91XB0)", "10 to 100 µM"),
    ("CC(C)C[C@H](C(=O)NCC1CCCCC1)N1CCC(CCc2ccccc2)N2C[C@H](N)C[C@H]2C1=O (stereo partly drawn) [Example 12]", "murine TREX1 (Mus musculus (Mouse), UniProt Q91XB0)", "10 to 100 µM"),
    ("CC(C)C[C@H](C(=O)NCc1ccccc1)N1CCC(CCc2ccccc2)N2C[C@H](N)C[C@H]2C1=O (stereo partly drawn) [Example 8]", "murine TREX1 (Mus musculus (Mouse), UniProt Q91XB0)", "10 to 100 µM"),
    ("N[C@@H]1C[C@H]2C(=O)N([C@H](CCC(=O)O)C(=O)NCc3ccc(C(F)(F)F)cc3)CCC(CCc3ccccc3)N2C1 (single isomer, unassigned) [Example 2B]", "murine TREX1 (Mus musculus (Mouse), UniProt Q91XB0)", "< 1 µM"),
    ("CC(C)C[C@H](C(=O)NCc1ccccc1Cl)N1CCC(CCc2ccccc2)N2C[C@H](N)C[C@H]2C1=O (stereo partly drawn) [Example 27]", "murine TREX1 (Mus musculus (Mouse), UniProt Q91XB0)", "10 to 100 µM"),
    ("CC(C)C[C@H](C(=O)NCCc1ccc(Cl)c(Cl)c1)N1CCC(CCc2ccccc2)N2C[C@H](N)C[C@H]2C1=O (stereo partly drawn) [Example 37]", "murine TREX1 (Mus musculus (Mouse), UniProt Q91XB0)", "1 to 9.99 µM"),
    ("CC(C)C[C@H](C(=O)NCc1ccc(C(F)(F)F)cc1)N1CCC(CCc2ccccc2)N2C[C@H](N)C[C@H]2C1=O (stereo partly drawn) [Example 6]", "murine TREX1 (Mus musculus (Mouse), UniProt Q91XB0)", "< 1 µM"),
    ("N[C@@H]1C[C@H]2C(=O)N([C@H](CCC(=O)O)C(=O)NCc3ccc(Cl)c(Cl)c3)CCC(COc3ccccc3)N2C1 (stereo partly drawn) [Example 17]", "murine TREX1 (Mus musculus (Mouse), UniProt Q91XB0)", "< 1 µM"),
    ("CC(C)C[C@H](C(=O)NCc1cc(Cl)cc(Cl)c1)N1CCC(CCc2ccccc2)N2C[C@H](N)C[C@H]2C1=O (stereo partly drawn) [Example 33]", "murine TREX1 (Mus musculus (Mouse), UniProt Q91XB0)", "1 to 9.99 µM"),
    ("N[C@@H]1C[C@H]2C(=O)N([C@H](Cc3ccc(O)cc3)C(=O)NCc3ccc(Cl)c(Cl)c3)CCC(CCc3ccccc3)N2C1 (stereo partly drawn) [Example 4]", "murine TREX1 (Mus musculus (Mouse), UniProt Q91XB0)", "< 1 µM"),
    ("N[C@@H]1C[C@H]2C(=O)N([C@H](CC(=O)O)C(=O)NCc3ccc(Cl)c(Cl)c3)CCC(CCc3ccccc3)N2C1 (stereo partly drawn) [Example 15]", "murine TREX1 (Mus musculus (Mouse), UniProt Q91XB0)", "< 1 µM"),
    ("N[C@@H]1C[C@H]2C(=O)N([C@H](CCc3nsc(=O)[nH]3)C(=O)NCc3ccc(Cl)c(Cl)c3)CCC(CCc3ccccc3)N2C1 (stereo partly drawn) [Example 38]", "murine TREX1 (Mus musculus (Mouse), UniProt Q91XB0)", "< 1 µM"),
    ("CC(C)C[C@H](C(=O)NCc1ccc(F)cc1)N1CCC(CCc2ccccc2)N2C[C@H](N)C[C@H]2C1=O (stereo partly drawn) [Example 34]", "murine TREX1 (Mus musculus (Mouse), UniProt Q91XB0)", "1 to 9.99 µM"),
    ("N[C@@H]1C[C@H]2C(=O)N([C@H](CCc3nnn[nH]3)C(=O)NCc3ccc(Cl)c(Cl)c3)CCC(CCc3ccccc3)N2C1 (stereo partly drawn) [Example 36]", "murine TREX1 (Mus musculus (Mouse), UniProt Q91XB0)", "< 1 µM"),
    ("CC(C)C[C@H](C(=O)NCc1ccc(C#N)cc1)N1CCC(CCc2ccccc2)N2C[C@H](N)C[C@H]2C1=O (stereo partly drawn) [Example 32]", "murine TREX1 (Mus musculus (Mouse), UniProt Q91XB0)", "10 to 100 µM"),
    ("CC(C)C[C@H](C(=O)NCc1ccc(Cl)c(Cl)c1)N1CC(CCc2ccccc2)N2C[C@H](N)C[C@H]2C1=O (stereo partly drawn) [Example 22]", "murine TREX1 (Mus musculus (Mouse), UniProt Q91XB0)", "10 to 100 µM"),
    ("NC(=O)CC[C@H](C(=O)NCc1ccc(Cl)c(Cl)c1)N1CCC(CCc2ccccc2)N2C[C@H](N)C[C@H]2C1=O (stereo partly drawn) [Example 16]", "murine TREX1 (Mus musculus (Mouse), UniProt Q91XB0)", "< 1 µM"),
]

---

Test system: interferon stimulated genes (ISGs) in THP1 Dual cells
Assay: RT-qPCR assay of interferon stimulated gene expression
Type: cell-based, human
Conditions: substance alone, 24 hours, normalized to GAPDH, unstimulated control = 1
Listed here: items and their measured IFI44L expression.

# MOLECULE, IFI44L expression
measured = [
    ("N[C@@H]1C[C@H]2C(=O)N([C@H](CC(=O)O)C(=O)NCc3ccc(Cl)c(Cl)c3)CCC(CCc3ccccc3)N2C1 (stereo partly shown)", 20),
    ("N[C@@H]1C[C@H]2C(=O)N([C@H](CCC(=O)O)C(=O)NCc3ccc(Cl)c(Cl)c3)CCC(CCc3ccccc3)N2C1 (stereo partly shown) [Example 14B]", 65),
    ("NC(=O)CC[C@H](C(=O)NCc1ccc(Cl)c(Cl)c1)N1CCC(CCc2ccccc2)N2C[C@H](N)C[C@H]2C1=O (stereo partly shown)", 15),
    ("N[C@@H]1C[C@H]2C(=O)N([C@H](CCc3nnn[nH]3)C(=O)NCc3ccc(Cl)c(Cl)c3)CCC(CCc3ccccc3)N2C1 (stereo partly shown)", 16),
]

Measured values drawn from patent US11306098B2 for this set.
